# measurementTarget: α5β3γ2 GABAA receptors (Ltk cell membranes) (Homo sapiens, UniProt P18507+P31644)
# Construct: membranes
# Sequence (P31644 32-462): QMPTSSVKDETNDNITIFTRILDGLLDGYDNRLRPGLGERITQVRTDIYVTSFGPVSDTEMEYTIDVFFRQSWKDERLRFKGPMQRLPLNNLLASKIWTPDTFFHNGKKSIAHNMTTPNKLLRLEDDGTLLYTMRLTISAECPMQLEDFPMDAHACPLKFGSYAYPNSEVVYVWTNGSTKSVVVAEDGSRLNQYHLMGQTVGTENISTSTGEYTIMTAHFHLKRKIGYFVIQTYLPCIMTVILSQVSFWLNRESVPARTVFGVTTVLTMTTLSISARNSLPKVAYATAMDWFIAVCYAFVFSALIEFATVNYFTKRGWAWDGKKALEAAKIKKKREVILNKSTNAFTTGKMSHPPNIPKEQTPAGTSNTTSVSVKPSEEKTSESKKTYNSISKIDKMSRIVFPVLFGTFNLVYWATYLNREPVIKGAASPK
# Sequence (P28472 26-473 partner): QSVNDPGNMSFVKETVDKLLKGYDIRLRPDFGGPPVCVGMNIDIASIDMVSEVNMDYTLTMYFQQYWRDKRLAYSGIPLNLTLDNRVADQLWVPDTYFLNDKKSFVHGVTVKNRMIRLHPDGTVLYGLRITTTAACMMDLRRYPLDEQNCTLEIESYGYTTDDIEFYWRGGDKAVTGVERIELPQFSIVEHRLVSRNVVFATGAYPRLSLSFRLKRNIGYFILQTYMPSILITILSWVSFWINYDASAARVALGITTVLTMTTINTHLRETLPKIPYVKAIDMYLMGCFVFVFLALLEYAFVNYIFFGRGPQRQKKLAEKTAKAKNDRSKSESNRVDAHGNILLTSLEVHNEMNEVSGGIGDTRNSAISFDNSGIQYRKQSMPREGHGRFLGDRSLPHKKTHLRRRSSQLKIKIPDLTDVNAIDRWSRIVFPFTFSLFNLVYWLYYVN
# Sequence (P18507 40-475): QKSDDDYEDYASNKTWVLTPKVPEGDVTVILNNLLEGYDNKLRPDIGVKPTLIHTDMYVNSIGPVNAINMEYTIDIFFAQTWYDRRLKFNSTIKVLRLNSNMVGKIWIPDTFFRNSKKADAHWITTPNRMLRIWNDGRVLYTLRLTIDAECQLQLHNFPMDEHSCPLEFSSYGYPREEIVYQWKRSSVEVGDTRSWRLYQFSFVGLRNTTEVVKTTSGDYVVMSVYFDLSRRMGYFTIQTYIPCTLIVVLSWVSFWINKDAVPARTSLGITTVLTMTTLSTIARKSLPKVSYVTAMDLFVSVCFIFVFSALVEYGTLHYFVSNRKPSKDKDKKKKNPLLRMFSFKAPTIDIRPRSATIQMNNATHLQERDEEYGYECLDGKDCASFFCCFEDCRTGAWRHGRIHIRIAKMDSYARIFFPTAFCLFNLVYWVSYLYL
# assayProtocol: Binding activity of test compounds on GABAAR: inhibition of [3H]Ro15-1788 binding
# cond: GABA α5 Binding Ki Values, inhibition of [3H]Ro15-1788 binding; reported as ranges
# Description: Tissue culture and Membrane Preparation: The binding was performed on Ltk cells stably expressing GABAA receptors: α1β1γ2, α2β3γ2, α3β3γ2 and α5β3γ2 (provided by Merck Co., NJ, USA). Cells were seeded in 100 mm culture plates in DMEM/F12 medium containing 10% serum and antibiotics in 5% CO2 and allowed to grow for 1-2 days. […] Protein content was determined using BCA assay (Bio-Rad Labs, Reinach, Switzerland) with Bovine Serum Albumin (Sigma Aldrich, St. Louis, Mo., USA) as the standard. […]
propertyMeasured: Ki

The following compounds have reported results that may help.
compound: COc1ccc2c(c1)-n1nncc1Cc1c(C3=N[C@@H](c4ccccc4F)CO3)ncn1-2 [Compound 366]
Ki: < 100 nM
--
compound: C#Cc1ncn2c1Cn1c(COc3ccccc3)nnc1-c1cc(OC)ccc1-2 [Compound 236]
Ki: < 100 nM
--
compound: Cc1noc(-c2ncn3c2Cc2c(C)nnn2-c2cc(F)ccc2-3)n1 [Compound 110]
Ki: 100 to 1000 nM
--
compound: C#Cc1ncn2c1Cc1c(C)nnn1-c1ccccc1-2 [Compound 161]
Ki: < 100 nM
--
compound: C#Cc1ncn2c1Cn1c(COc3cccnc3)nnc1-c1cc(OC)ccc1-2 [Compound 241]
Ki: < 100 nM
--
compound: CNC(=O)c1nnn2c1Cc1c(Br)ncn1-c1ccc(OC)cc1-2 [Compound 247]
Ki: 100 to 1000 nM
--
compound: CCOCc1nnc2n1Cc1c(-c3nc(C)no3)ncn1-c1ccc(Cl)cc1-2 [Compound 255]
Ki: < 100 nM
--
compound: COc1ccc2c(c1)-n1nncc1Cc1c(C3=N[C@@H](c4cccc5ccccc45)CO3)ncn1-2 [Compound 370]
Ki: 100 to 1000 nM
--
compound: COc1ccc2c(c1)-c1nnc(COc3ccccc3)n1Cc1c(C(=O)OCC(C)(C)C)ncn1-2 [Compound 119]
Ki: 100 to 1000 nM
--
compound: Cc1noc(-c2ncn3c2Cc2c(Cc4ccccc4)nnn2-c2cc(F)ccc2-3)n1 [Compound 109]
Ki: < 100 nM

Ask: Read off the recorded Ki for COCc1nnc2n1Cc1c(-c3nc(C)no3)ncn1-c1ccc(C#N)cc1-2 [Compound 465]
Result: < 100 nM

Ask: Read off the recorded Ki for CCOC(=O)c1ncn2c1Cc1c(Cc3ccccc3)nnn1-c1cc(C)ccc1-2 [Compound 101]
Result: < 100 nM

Ask: Read off the recorded Ki for FC(F)c1ncn2c1Cn1c(COc3ccccc3)nnc1-c1cc(Cl)ccc1-2 [Compound 200]
Result: 100 to 1000 nM

Ask: Read off the recorded Ki for COc1ccc2c(c1)-n1nnc(C)c1Cc1c(-c3ncco3)ncn1-2 [Compound 347]
Result: 100 to 1000 nM

Ask: Read off the recorded Ki for CCOC(=O)c1ncn2c1Cc1c(C)cnn1-c1cc(OC)ccc1-2 [Compound 7]
Result: < 100 nM

Ask: Read off the recorded Ki for CCOC(=O)c1ncn2c1Cc1c(Cc3ccc(Cl)cc3)nnn1-c1ccccc1-2 [Compound 47]
Result: < 100 nM

Ask: Read off the recorded Ki for C#Cc1ncn2c1Cn1c(COCC)nnc1-c1cc(Cl)ccc1-2 [Compound 261]
Result: < 100 nM

Ask: Read off the recorded Ki for CCOCc1nnc2n1Cc1c(C3=N[C@@H](c4ccc(F)cc4)CO3)ncn1-c1ccc(Cl)cc1-2 [Compound 325]
Result: < 100 nM

====

# measurementTarget: α5β3γ2 GABAA receptors (Ltk cell membranes) (Homo sapiens, UniProt P18507+P31644)
# Construct: membranes
# assayProtocol: Binding activity of test compounds on GABAAR: inhibition of [3H]Ro15-1788 binding
# cond: GABA α5 Binding Ki Values, inhibition of [3H]Ro15-1788 binding; reported as ranges
# Experimental: Tissue culture and Membrane Preparation: The binding was performed on Ltk cells stably expressing GABAA receptors: α1β1γ2, α2β3γ2, α3β3γ2 and α5β3γ2 (provided by Merck Co., NJ, USA). Cells were seeded in 100 mm culture plates in DMEM/F12 medium containing 10% serum and antibiotics in 5% CO2 and allowed to grow for 1-2 days. […] Protein content was determined using BCA assay (Bio-Rad Labs, Reinach, Switzerland) with Bovine Serum Albumin (Sigma Aldrich, St. Louis, Mo., USA) as the standard. […]
Entries annotated with measured Ki

The following compounds have reported results that may help.
compound: Cc1ccccc1C#Cc1ncn2c1Cn1c(COC(C)C)nnc1-c1cc(Cl)ccc1-2 [Compound 310]
measurementTarget: α5β3γ2 GABAA receptors (Ltk cell membranes) (Homo sapiens, UniProt P18507+P31644)
Ki: < 100 nM
--
compound: COc1ccc2c(c1)-c1nnc(COc3ccccc3)n1Cc1c(Br)ncn1-2 [Compound 232]
measurementTarget: α5β3γ2 GABAA receptors (Ltk cell membranes) (Homo sapiens, UniProt P18507+P31644)
Ki: < 100 nM
--
compound: COc1ccc2c(c1)-c1nnc(COc3ccccc3F)n1Cc1c(-c3noc(C(C)C)n3)ncn1-2 [Compound 174]
measurementTarget: α5β3γ2 GABAA receptors (Ltk cell membranes) (Homo sapiens, UniProt P18507+P31644)
Ki: < 100 nM
--
compound: CCOC(=O)c1ncn2c1Cc1c(CN3CCCC3)nnn1-c1cc(OC)ccc1-2 [Compound 48]
measurementTarget: α5β3γ2 GABAA receptors (Ltk cell membranes) (Homo sapiens, UniProt P18507+P31644)
Ki: < 100 nM
--
compound: Cc1cc(-c2ncn3c2Cn2c(COCC(F)(F)F)nnc2-c2cc(Cl)ccc2-3)on1 [Compound 303]
measurementTarget: α5β3γ2 GABAA receptors (Ltk cell membranes) (Homo sapiens, UniProt P18507+P31644)
Ki: 100 to 1000 nM
--
compound: COCc1nnc2n1Cc1c(-c3nc(C)no3)ncn1-c1ccc(-c3ccccc3)cc1-2 [Compound 462]
measurementTarget: α5β3γ2 GABAA receptors (Ltk cell membranes) (Homo sapiens, UniProt P18507+P31644)
Ki: < 100 nM
--
compound: COc1ccc2c(c1)-n1nncc1Cc1c(C#CCc3ccccc3)ncn1-2 [Compound 413]
measurementTarget: α5β3γ2 GABAA receptors (Ltk cell membranes) (Homo sapiens, UniProt P18507+P31644)
Ki: < 100 nM

As a next step, examine the compound that follows.
Ask: Read off the recorded Ki for CC(C)c1coc(-c2ncn3c2Cc2cnnn2-c2cc(Cl)ccc2-3)n1 [Compound 387]
Result: < 100 nM

====

# measurementTarget: α5β3γ2 GABAA receptors (Ltk cell membranes) (Homo sapiens, UniProt P18507+P31644)
# Construct: membranes
# assayProtocol: Binding activity of test compounds on GABAAR: inhibition of [3H]Ro15-1788 binding
# cond: GABA α5 Binding Ki Values, inhibition of [3H]Ro15-1788 binding; reported as ranges
Entries annotated with measured Ki

The following compounds have reported results that may help.
givenSmiles: COCc1nnc2n1Cc1c(-c3nc4ccccc4o3)ncn1-c1ccc(Cl)cc1-2
propertyMeasured: Ki
result: 100 to 1000 nM

givenSmiles: COCc1nnc2n1Cc1c(-c3cc(C)no3)ncn1-c1ccc(Cl)cc1-2
propertyMeasured: Ki
result: < 100 nM

givenSmiles: COCc1nnc2n1Cc1c(-c3noc(C(C)C)n3)ncn1-c1ccc(F)cc1-2
propertyMeasured: Ki
result: < 100 nM

As a next step, examine the compound that follows.
Ask: Read off the recorded Ki for `CCOC(=O)c1ncn2c1Cc1c(-c3ccccc3Cl)nnn1-c1cc(OC)ccc1-2`
Result: > 1000 nM

====

Entries annotated with measured Ki
# measurementTarget: α5β3γ2 GABAA receptors (Ltk cell membranes) (Homo sapiens, UniProt P18507+P31644)
# Construct: membranes
# assayProtocol: Binding activity of test compounds on GABAAR: inhibition of [3H]Ro15-1788 binding
# cond: GABA α5 Binding Ki Values, inhibition of [3H]Ro15-1788 binding; reported as ranges

compound: COCc1nnc2n1Cc1c(C3=N[C@@H](c4ccc(Cl)cc4)CO3)ncn1-c1ccc(Cl)cc1-2 [Compound 334]
Ki: < 100 nM

compound: COc1ccc2c(c1)-c1nnc(COCc3ccccc3F)n1Cc1c(-c3noc(C(C)C)n3)ncn1-2 [Compound 184]
Ki: < 100 nM

compound: CCOC(=O)c1ncn2c1Cc1c(COc3ccccc3)nnn1-c1cc(OC)ccc1-2 [Compound 9]
Ki: < 100 nM

compound: COc1ccc2c(c1)-c1nnc(COCc3cccc(F)c3)n1Cc1c(-c3noc(C(C)C)n3)ncn1-2 [Compound 183]
Ki: < 100 nM

compound: COCc1nnc2n1Cc1c(-c3nc(C)no3)ncn1-c1ccc(Cl)cc1-2 [Compound 198]
Ki: < 100 nM

compound: CC(C)OCc1nnc2n1Cc1c(C3=NCCO3)ncn1-c1ccc(Cl)cc1-2 [Compound 316]
Ki: 100 to 1000 nM

compound: CCOCc1nnc2n1Cc1c(C#Cc3ccccc3C)ncn1-c1ccc(Cl)cc1-2 [Compound 311]
Ki: < 100 nM

compound: Cc1noc(-c2ncn3c2Cn2c(COc4ccccc4)nnc2-c2cc(F)ccc2-3)n1 [Compound 138]
Ki: 100 to 1000 nM

Ask: Give the observed Ki of COCc1nnc2n1Cc1c(-c3noc(C)n3)ncn1-c1ccc(OC)cc1-2 [Compound 164] for α5β3γ2 GABAA receptors (Ltk cell membranes) (Homo sapiens, UniProt P18507+P31644).
Result: < 100 nM

Ask: Give the observed Ki of COc1ccc2c(c1)-n1nncc1Cc1c(C3=N[C@@H](c4ccccc4C)CO3)ncn1-2 [Compound 373] for α5β3γ2 GABAA receptors (Ltk cell membranes) (Homo sapiens, UniProt P18507+P31644).
Result: < 100 nM

Ask: Give the observed Ki of CCOCc1nnc2n1Cc1c(C#Cc3ccccc3F)ncn1-c1ccc(Cl)cc1-2 [Compound 307] for α5β3γ2 GABAA receptors (Ltk cell membranes) (Homo sapiens, UniProt P18507+P31644).
Result: < 100 nM
